Can you tell me yeast fitness for the items I'm about to list?
B1: tRNA (parent)
chain: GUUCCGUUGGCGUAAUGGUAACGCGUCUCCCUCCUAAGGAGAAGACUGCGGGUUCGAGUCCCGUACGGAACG

Variants of: B1
Experiment: yeast fitness relative to wild type (ratio to wild type); higher = fitter; tRNA-Arg(CCU), competitive growth, 37 C, YPD
Variants at the floor of the assay were thinned out.

Data point: "GUUACGUUGGCGUGAUAGUAACGCGUCUCCCUCCUAAGGAGAAGACUGCGGGUUCGAGUGCCGUACGGAACG" ; yeast fitness = ≤ 0.5

Looking up "GUUCCGUUGGAGUAAUGGUGACGCGUCUCCCUCCUAAGGAGAAGAUUGCCGGUUCGAGUACCGUACGGAACG" , I see its yeast fitness listed as ≤ 0.5

Item: "GUUCCGUUGGCGUAAUGACAACGCGUGUCCCUCCUAAGGAGAAGACUGCGGGUUCGAGUCACGGACGGAACG" | yeast fitness: ≤ 0.5

// yeast fitness lookup, variant = "GUUCCGUUGGCGUAAUGGUAACGCGUCUCCCUCUUAAGGAGAAGACUGCGGGUUCAAGUCCCGUACGGAGCG" , result: ≤ 0.5

# yeast fitness of "GUUCCGUUGGCGAAGGGGUAACGCGUCUCCCUCCUAAGGAGAAGACUGCGGGUUCGGGUCACGUACGGAACG" = ≤ 0.5

Lab note: "GUUCGGUUGGCGUAAUGGUAAAGCGUCUCCCUCCUAGGGAGAAGACUGCGGGUUCGAGUCCCGUACGGAACG" gave yeast fitness of ≤ 0.5

The recorded yeast fitness for "GUCCCGUUGGCGUAAUGGUAACGCGUCUCCAUCCUAAGGAGAAGACUGAGGGUUCGAGUCCCGUACGGAACG" is ≤ 0.5

Lookup result for "GUUCCGUUGGCGUAAUGGUAACGCGUGUCGUUCCUAAGGAGGAGACUGCGGGUCCGAGUCCCGUACGGAACG" ; measured yeast fitness: ≤ 0.5

Query "GUUCCGUUGGCGUAAUGGUAACGCGUCUCCCUCCUAAGGAGAAGACUGCGCGUUCAAGUCCCGUACGGAACG" yields yeast fitness of 0.698

// sample "GUUCGGUUGGCGUAAUAGUAACGCGCCUCCCUCCUAAGGAGAAGACUGCGGGUUCGAGUCCCGUACGGACCG" , its yeast fitness was ≤ 0.5

For "GUUCCGUUGGCGUAAUGGUAACGCGUCUCCCUCCUAACGAGAGGACUGCGGGUUCGAGUCCGGUACGGAACG" the variant record lists yeast fitness as ≤ 0.5

yeast fitness for "GCUCCGUUGGCGUAAUGGUAACGCGUCUUCCUCCUAAGGAGAAGAGUGCGACUUCGAGUCCCGUACGGAACG" is 0.557

Noted for "GUUCCGUUGGCGUAAUGGUAACGCGUCUCCCUCCUCAGGAGAAGACUCCGGGUUCGAGUCCCGUACGGAACG" : its yeast fitness reads ≤ 0.5

Documented yeast fitness of "GUUCCGUUGGCGUAAUGGUAACGCGUCUCCCUCCUAAGGUGCAGACUGCGGGUUCGAGUCCUGUACGAAACG" : ≤ 0.5

# variant "GUUCCGUUGGCGUAAUGGUCACGCGUCUCCCUCGUAAGGAGAAGACUGCGGGUUCGAGUCCCGUACGGUACG" ; its yeast fitness = 0.549

Input "GUUUCGUUCGCGUAAUGGUAACGCGUCUCCCUCCUAAGGAGAAGACUGCGGGUUCGAGUCCCGUACGGAACG" . Output yeast fitness: 0.688

Quick note, yeast fitness for "GUUCCGUUGGCGUAAUGGUAAGGCCUCUCCCUCCUAGGGAGAAGACUGCGGGUUCGAGUCCCGUACGGAACG" landed at ≤ 0.5

Per the record, "GUUCCGUUGGCGUAAUCGUGACGCGUCUCCCUCCUAAGGAGAAGACUGCGGGUUCGGGUCCUGUACGGAACG" has yeast fitness of ≤ 0.5

yeast fitness for "GUUCCGUAGGCGUAAUGAUAACGCGUCUCCCACCUAAGGAGAAGACUGCGGGUUCGAAUCCCGUACGGAACG" is ≤ 0.5
